In this section, each of the compounds is paired with its reported IC50.
# Tested on: 889142-216-R-J1-PDC complex spheroid viability
# Assay summary: Anticancer human tumor 889142-216-R-J1-PDC patient-derived bladder carcinoma cell line growth inhibition [POLQ]
# Test context: curve of first compound; second compound 0.316 µM

O=C(c1cc(Cc2n[nH]c(=O)c3ccccc23)ccc1F)N1CCN(C(=O)C2CC2)CC1 + Cc1cccc(N(C)C(=O)C2C(O)CCN2c2nc(C)cc(C(F)(F)F)c2C#N)c1 | > 10 µM
CCCS(=O)(=O)Nc1ccc(F)c(C(=O)c2c[nH]c3ncc(-c4ccc(Cl)cc4)cc23)c1F + Cc1cccc(N(C)C(=O)C2C(O)CCN2c2nc(C)cc(C(F)(F)F)c2C#N)c1 | > 10 µM

Prompt: # query: IC50 of entry O=C(Nc1ccc(O)c(NS(=O)(=O)c2ccc(F)cc2)c1)c1ccc(-c2ccccc2)cc1 + Cc1cccc(N(C)C(=O)C2C(O)CCN2c2nc(C)cc(C(F)(F)F)c2C#N)c1
Response: > 10 µM

---

As shown below, each of these compounds has a reported IC50 value.
# Tested on: 889142-216-R-J1-PDC complex spheroid viability
# Assay summary: Anticancer human tumor 889142-216-R-J1-PDC cell line growth inhibition [POLQ];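 further: spheroids exposed to compounds for seven days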
# Test context: curve of first compound; second compound 0.1 µM

O=C(Nc1ccc(O)c(NS(=O)(=O)c2ccc(F)cc2)c1)c1ccc(-c2ccccc2)cc1 + Cc1cccc(N(C)C(=O)C2C(O)CCN2c2nc(C)cc(C(F)(F)F)c2C#N)c1 | > 10 µM
O=C(Nc1ccc(O)c(NS(=O)(=O)c2ccc(F)cc2)c1)c1ccc(-c2ccccc2)cc1 + Nc1ccc(C#CCN(C(=O)Cc2ncc(C(F)(F)F)cc2C(F)(F)F)c2ccc(F)cc2)nn1 | > 10 µM

Prompt: IC50 lookup needed for CCCS(=O)(=O)Nc1ccc(F)c(C(=O)c2c[nH]c3ncc(-c4ccc(Cl)cc4)cc23)c1F + Cc1cccc(N(C)C(=O)C2C(O)CCN2c2nc(C)cc(C(F)(F)F)c2C#N)c1 , thanks.
Response: > 10 µM

---

Reported values of pIC50 for individual entries
# Test system: 889142-216-R-J1-PDC complex spheroid viability
# Assay summary: Anticancer human tumor 889142-216-R-J1-PDC cell line growth inhibition [POLQ];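 further: spheroids exposed to compounds for seven days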
# Test context: curve of first compound; second compound 0.0316 µM
pIC50: −log10 of the molar value.

C=CC(=O)N1CCN(c2nc(=O)n(-c3c(C)ccnc3C(C)C)c3nc(-c4c(O)cccc4F)c(F)cc23)C(C)C1 (stereo unspecified) + Nc1ccc(C#CCN(C(=O)Cc2ncc(C(F)(F)F)cc2C(F)(F)F)c2ccc(F)cc2)nn1 | < 5.00
COc1cc2cc(C(=O)CCC(=O)O)sc2cc1OC + COC1C(OC(N)=O)C(O)C(Oc2ccc3c(O)c(NC(=O)c4ccc(O)c(CC=C(C)C)c4)c(=O)oc3c2C)OC1(C)C | < 5.00
C=CC(=O)N1CCN(c2nc(=O)n(-c3c(C)ccnc3C(C)C)c3nc(-c4c(O)cccc4F)c(F)cc23)C(C)C1 (stereo unspecified) + COC1C(OC(N)=O)C(O)C(Oc2ccc3c(O)c(NC(=O)c4ccc(O)c(CC=C(C)C)c4)c(=O)oc3c2C)OC1(C)C | < 5.00
CCCS(=O)(=O)Nc1ccc(F)c(C(=O)c2c[nH]c3ncc(-c4ccc(Cl)cc4)cc23)c1F + Cc1cccc(N(C)C(=O)C2C(O)CCN2c2nc(C)cc(C(F)(F)F)c2C#N)c1 | < 5.00
CCc1cc2c(N3CCc4c(cc(Cn5ccnc5)cc4-c4cn(C)nc4C(F)(F)F)C3=O)cc(C)nc2c(OC)n1 + COC1C(OC(N)=O)C(O)C(Oc2ccc3c(O)c(NC(=O)c4ccc(O)c(CC=C(C)C)c4)c(=O)oc3c2C)OC1(C)C | < 5.00
CC[C@@]1(O)C(=O)OCc2c1cc1n(c2=O)Cc2cc3c(CN(C)C)c(O)ccc3nc2-1 + Cc1cccc(N(C)C(=O)C2C(O)CCN2c2nc(C)cc(C(F)(F)F)c2C#N)c1 | < 7.00
O=C(Nc1ccc(O)c(NS(=O)(=O)c2ccc(F)cc2)c1)c1ccc(-c2ccccc2)cc1 + COC1C(OC(N)=O)C(O)C(Oc2ccc3c(O)c(NC(=O)c4ccc(O)c(CC=C(C)C)c4)c(=O)oc3c2C)OC1(C)C | < 5.00
Cn1ncnc1[C@H]1c2n[nH]c(=O)c3cc(F)cc(c23)N[C@@H]1c1ccc(F)cc1 + Nc1ccc(C#CCN(C(=O)Cc2ncc(C(F)(F)F)cc2C(F)(F)F)c2ccc(F)cc2)nn1 | < 7.00
CCc1cc2c(N3CCc4c(cc(Cn5ccnc5)cc4-c4cn(C)nc4C(F)(F)F)C3=O)ccnc2c(OC)n1 + Nc1ccc(C#CCN(C(=O)Cc2ncc(C(F)(F)F)cc2C(F)(F)F)c2ccc(F)cc2)nn1 | < 5.00
O=C(c1cc(Cc2n[nH]c(=O)c3ccccc23)ccc1F)N1CCN(C(=O)C2CC2)CC1 + COC1C(OC(N)=O)C(O)C(Oc2ccc3c(O)c(NC(=O)c4ccc(O)c(CC=C(C)C)c4)c(=O)oc3c2C)OC1(C)C | < 5.00

Consider now this further compound.
Prompt: What does the data say about its pIC50? Entry: COc1cc(C2c3cc4c(cc3C(OC3OC5COC(C)OC5C(O)C3O)C3COC(=O)C23)OCO4)cc(OC)c1O (stereo unspecified) + Nc1ccc(C#CCN(C(=O)Cc2ncc(C(F)(F)F)cc2C(F)(F)F)c2ccc(F)cc2)nn1
Response: < 5.00

---

# Tested on: 889142-216-R-J1-PDC complex spheroid viability
# Assay summary: Anticancer human tumor 889142-216-R-J1-PDC cell line growth inhibition [POLQ];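 further: spheroids exposed to compounds for seven days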;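 on viability, T/C: 100% = DMSO vehicle control viability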
# Test context: second compound 0.1 µM; first compound 0.0316 µM; stronger effect = lower value
Value type: viability, T/C (%)
Return type: number; implicit unit %.

Below: 10 molecules and their reported viability, T/C.
CCCS(=O)(=O)Nc1ccc(F)c(C(=O)c2c[nH]c3ncc(-c4ccc(Cl)cc4)cc23)c1F + Nc1ccc(C#CCN(C(=O)Cc2ncc(C(F)(F)F)cc2C(F)(F)F)c2ccc(F)cc2)nn1 | 114
COc1cc2cc(C(=O)CCC(=O)O)sc2cc1OC + Nc1ccc(C#CCN(C(=O)Cc2ncc(C(F)(F)F)cc2C(F)(F)F)c2ccc(F)cc2)nn1 | 108
C=CC(=O)N1CCN(c2nc(=O)n(-c3c(C)ccnc3C(C)C)c3nc(-c4c(O)cccc4F)c(F)cc23)C(C)C1 (configuration not stated) + Cc1cccc(N(C)C(=O)C2C(O)CCN2c2nc(C)cc(C(F)(F)F)c2C#N)c1 | 110
C=CCn1c(=O)c2cnc(Nc3ccc(N4CCN(C)CC4)cc3)nc2n1-c1cccc(C(C)(C)O)n1 + Nc1ccc(C#CCN(C(=O)Cc2ncc(C(F)(F)F)cc2C(F)(F)F)c2ccc(F)cc2)nn1 | 108
CCc1c2c(nc3ccc(O)cc13)-c1cc3c(c(=O)n1C2)COC(=O)[C@]3(O)CC + Cc1cccc(N(C)C(=O)C2C(O)CCN2c2nc(C)cc(C(F)(F)F)c2C#N)c1 | 44.7
CCCS(=O)(=O)Nc1ccc(F)c(C(=O)c2c[nH]c3ncc(-c4ccc(Cl)cc4)cc23)c1F + Cc1cccc(N(C)C(=O)C2C(O)CCN2c2nc(C)cc(C(F)(F)F)c2C#N)c1 | 121
COc1cc(C2c3cc4c(cc3C(OC3OC5COC(C)OC5C(O)C3O)C3COC(=O)C23)OCO4)cc(OC)c1O (configuration not stated) + Nc1ccc(C#CCN(C(=O)Cc2ncc(C(F)(F)F)cc2C(F)(F)F)c2ccc(F)cc2)nn1 | 99.5
O=c1[nH]cc(F)c(=O)[nH]1 + Cc1cccc(N(C)C(=O)C2C(O)CCN2c2nc(C)cc(C(F)(F)F)c2C#N)c1 | 102
CCc1cc2c(N3CCc4c(cc(Cn5ccnc5)cc4-c4cn(C)nc4C(F)(F)F)C3=O)cc(C)nc2c(OC)n1 + Nc1ccc(C#CCN(C(=O)Cc2ncc(C(F)(F)F)cc2C(F)(F)F)c2ccc(F)cc2)nn1 | 123
O=c1[nH]cc(F)c(=O)[nH]1 + COC1C(OC(N)=O)C(O)C(Oc2ccc3c(O)c(NC(=O)c4ccc(O)c(CC=C(C)C)c4)c(=O)oc3c2C)OC1(C)C | 121

Prompt: Look up viability, T/C for this molecule: C=CC(=O)N1CCN(c2nc(=O)n(-c3c(C)ccnc3C(C)C)c3nc(-c4c(O)cccc4F)c(F)cc23)C(C)C1 (configuration not stated) + Nc1ccc(C#CCN(C(=O)Cc2ncc(C(F)(F)F)cc2C(F)(F)F)c2ccc(F)cc2)nn1
Response: 103

Prompt: For the molecule shown here, CC1COCCN1c1cc(-c2ccnn2C)c2ccnc(-c3ccn[nH]3)c2n1 (configuration not stated) + Nc1ccc(C#CCN(C(=O)Cc2ncc(C(F)(F)F)cc2C(F)(F)F)c2ccc(F)cc2)nn1 , give the reported viability, T/C.
Response: 71.8
